assay_procedure: Rapamycin coating affinity testing: distribution between solid and liquid phases with surfactant in water (UV-Vis)
Type: physicochemical
test_conditions: 1:1 Surfactant to Rapa, 10x dilution; partition between supernatant and sediment
reported_property: ratio super/sed

compound	numeric_readout
CCCCCCCCCCCC[N+](C)(C)C.[Br-] [Dodecyltrimethylammonium Bromide, Dodecyltrimethyl Ammonium Bromide]	0.30
CCCCCCCCCCCCCCCC[N+](C)(C)CC.[Br-] [Ethylhexadecyldimethylammonium Bromide]	0.24
CCCCCCCCCCCC[N+](CCCCCCCCCCCC)(CCCCCCCCCCCC)CCCCCCCCCCCC.[Br-] [Tetradodecylammoniumbromid, Tetradodecylammonium bromide]	0.17
CCCC[N+](CCCC)(CCCC)CCCC.[I-] [Tetrabutylammonium iodide]	0.30
CCCCCCCCCCCC[N+](C)(C)CCCCCCCCCCCC.[Br-] [DMAB, didodecyldimethylammonium bromide]	0.52
CCCCCCCCCCCCCC[N+](C)(C)CCCCCCCCCCCCCC.[Br-] [Dimethylditetradecylammonium bromide, Dimethylditetradecyl Ammonium bromide]	0.31

Numbers sourced from patent US20120177742A1.
